This collection of values is drawn from patent US20200369754A1.

experimentalTarget: T1, Aggregated recombinant 2N4R tau (rTau) (human, UniProt P10636 2-758, covalently labelled with pHrodo Green STP Ester)
T1 construct: Full-length huTau441 expressed in E. coli, in aggregated form; also called rTau aggregates; tau aggregates
T1 sequence (P10636 other isoform, or with tags, fused parts or gaps limits assumed): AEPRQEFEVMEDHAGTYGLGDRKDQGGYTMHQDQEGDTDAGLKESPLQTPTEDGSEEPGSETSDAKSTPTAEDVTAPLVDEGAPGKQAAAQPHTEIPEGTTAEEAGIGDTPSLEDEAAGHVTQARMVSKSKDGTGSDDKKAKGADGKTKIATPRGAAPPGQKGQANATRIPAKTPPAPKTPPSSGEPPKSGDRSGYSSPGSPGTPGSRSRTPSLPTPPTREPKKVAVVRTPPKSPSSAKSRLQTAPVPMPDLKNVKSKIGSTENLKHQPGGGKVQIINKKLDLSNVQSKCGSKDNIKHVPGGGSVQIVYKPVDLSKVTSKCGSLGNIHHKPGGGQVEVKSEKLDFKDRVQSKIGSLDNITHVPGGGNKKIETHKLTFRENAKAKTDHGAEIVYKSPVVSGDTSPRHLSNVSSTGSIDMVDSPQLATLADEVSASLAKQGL
assayExplanation: uptake of pHrodo-labelled rTau immunocomplexes by BV2 cells, flow cytometry

binder	binding result
CBTAU-28.1 (I50M[VH];Y52W[VH];S103F[VH];Y31W[VL];N99H[VL]) (antibody, V domains shown) VH: QVQLQQSGAEVKKPGESLKISCEASGYSFTNYWIGWVRQMPGKGLEWMGMIWPGDSDTRYSPPFQGQVTITADRSITTAYLEWSSLKASDTAMYYCARVGRPFKGGWFDPWGQGTLVTVSS VL: DIQMTQSPDSLAVSLGERATINCESSQTLLWSSNEKNYLAWYQQKPGQPPKLLISWASTPESGVPDRFSGSGSGTSFTLTISSLQAEDVAVYYCQQYYHSPYTFGQGTRLEIK	binds
